These data points were gathered from ChEMBL document CHEMBL4513216.

# assay.remarks: Toxicity liver stage against HepG2, at 10uM
# Assay type: cell-based
# Set-up: test concentration 10 uM, cell line HepG2-A16-CD81EGFP
# condition.summary: human, HepG2-A16-CD81EGFP cells; read-out: INHIBITION
measurement.type: cytotoxicity at 10 µM (%)
Numbers only, in %.

Use the examples below as a reference point.
[
  {
    "compound": "Cc1cc(C(=O)NCC2CCC3(CC2)OCCO3)[nH]n1",
    "cytotoxicity at 10 µM / %": -10.7
  },
  {
    "compound": "Cc1cnn(C2CN(Cc3nc(-c4ccccn4)no3)C2)c1",
    "cytotoxicity at 10 µM / %": 3.24
  },
  {
    "compound": "Cc1ccc(CN2CCC3(CC(=O)N(c4cccc(F)c4)C3)C2)o1 (stereo not drawn)",
    "cytotoxicity at 10 µM / %": -140
  },
  {
    "compound": "COc1ccc(OC)c(C(O)CN2CCC(N3CCC(C)CC3)CC2)c1 (stereo not drawn)",
    "cytotoxicity at 10 µM / %": -25.5
  },
  {
    "compound": "O=C(Nc1ccccc1)C1CN(Cc2nccs2)CC12CCOCC2 (stereo not drawn)",
    "cytotoxicity at 10 µM / %": 1.61
  },
  {
    "compound": "Cc1ccc2ncn(C(C)Cn3cccn3)c(=O)c2c1 (stereo not drawn)",
    "cytotoxicity at 10 µM / %": 4.4
  },
  {
    "compound": "COC(=O)c1cccc(S(=O)(=O)NC(=O)COC2CCCC2)c1",
    "cytotoxicity at 10 µM / %": -1.03
  },
  {
    "compound": "Cc1cc(C)cc(-c2cc(C3CCOC3)c(C#N)c(N)n2)c1 (stereo not drawn)",
    "cytotoxicity at 10 µM / %": 1.44
  },
  {
    "compound": "COc1ccccc1C(CNC(=O)NCc1cc[nH]n1)N1CCCC1 (stereo not drawn)",
    "cytotoxicity at 10 µM / %": -0.634
  },
  {
    "compound": "COc1ccccc1C1CNC(=O)c2nc(-c3c(C)n[nH]c3C)[nH]c2C1 (stereo not drawn)",
    "cytotoxicity at 10 µM / %": -8
  }
]

I need cytotoxicity at 10 µM for every entry listed below, if you could help.
1. CN1CCc2ccc(NCc3cccs3)cc2C1=O
2. COc1ccc(CN2C[C@@H]3OCC(=O)N(Cc4nccn4C)[C@@H]3C2)cc1
3. CN(C)Cc1ccc(C2CCCCN2C(=O)c2cc(=O)[nH]c(=O)[nH]2)cc1 (stereo not drawn)
4. CC(=O)NCc1ccc(S(=O)(=O)NC(=O)c2ccc3c(c2)COC3)cc1
5. O=C(c1ccco1)N1Cc2nccn2CC(Cn2ncccc2=O)C1 (stereo not drawn)
6. Cc1n[nH]c(C2CN(C(=O)c3cc4c(s3)CCC4)CCO2)n1 (stereo not drawn)
7. COc1ccc(C(=O)Nc2cc(CC(C)C)nn2C)cc1

Ans:
1: -4.72; 2: 4.24; 3: -3.95; 4: 6.42; 5: 5.09; 6: -5.65; 7: -10.6

----------
# assay.remarks: Toxicity liver stage against HepG2, at 10uM
# Type: cell-based
# Design: test concentration 10 uM, cell line HepG2-A16-CD81EGFP
# condition.summary: human, HepG2-A16-CD81EGFP cells; read-out: INHIBITION
measurement.type: cytotoxicity at 10 µM (%)
Numbers only, in %.

I need cytotoxicity at 10 µM for every entry listed below, if you could help.
1. Cc1ccc(NC(=O)Nc2c[nH]c(=O)[nH]c2=O)c(Cl)c1
2. CCn1c(C)cc(C(=O)NCc2cccc(S(=O)(=O)NC)c2)c1C
3. Cc1nnc(NCC(c2ccco2)N(C)C)c(C#N)c1C (stereo unspecified)
4. CC(Cn1ccnc1)NC(=O)C1(c2cccc(Cl)c2)CC1 (stereo unspecified)
5. O=C(C1CCOCC1)N1CCc2ncc(CN3CCCC3)n2CC1
6. O=C(c1c[nH]cn1)N1CCCn2c(CN3CCCCC3)nnc2C1

Ans:
1. -4.28
2. -6.43
3. -3.01
4. -19.3
5. -76.1
6. -3.03

I need cytotoxicity at 10 µM for every entry listed below, if you could help.
1. Cc1cc(C)c(CNC(=O)N2CCCC2c2ccc(F)cc2)c(=O)[nH]1 (stereo unspecified)
2. Cc1cc(C)c(CNC(=O)NCc2nnc3n2CCCC3)c(=O)[nH]1
3. Cc1cc2[nH]c(=O)c(=O)[nH]c2cc1S(=O)(=O)NC1CCC(C)CC1 (stereo unspecified)
4. CCOc1cccc(CNc2cnn(CC(C)C)c2CC)c1
5. O=C1CCC(c2ccccc2)(c2ccccc2)CN1CCO

Ans:
1. 1.38
2. -5.34
3. -10.5
4. 2.93
5. 2.94
